Target: Cholecystokinin receptor type A (Rattus norvegicus, UniProt P30551)
Sequence (P30551 whole entry): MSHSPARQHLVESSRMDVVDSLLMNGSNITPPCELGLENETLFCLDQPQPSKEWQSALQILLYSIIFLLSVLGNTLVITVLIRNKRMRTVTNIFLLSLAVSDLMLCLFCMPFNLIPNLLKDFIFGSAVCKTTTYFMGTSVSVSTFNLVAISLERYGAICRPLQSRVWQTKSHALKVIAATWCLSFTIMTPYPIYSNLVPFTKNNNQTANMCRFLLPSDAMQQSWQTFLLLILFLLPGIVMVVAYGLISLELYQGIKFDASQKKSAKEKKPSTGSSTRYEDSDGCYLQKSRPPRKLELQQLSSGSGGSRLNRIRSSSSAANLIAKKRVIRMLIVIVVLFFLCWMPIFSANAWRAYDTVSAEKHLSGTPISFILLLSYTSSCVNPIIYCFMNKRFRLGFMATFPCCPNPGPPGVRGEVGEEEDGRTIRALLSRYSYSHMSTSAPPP
Assay: Binding affinity towards CCK-A receptor in rat pancreas using [125I]Bolton-Hunter CCK-8 as radioligand; Value ranges from 3.3-5.4 uM
Format: tissue-based
measured-quantity: IC50 (µM)
Record the value in µM, omitting the unit from your answer.

Lookup: Field request: IC50 | item: O=C1[C@H](Cc2c[nH]c3ccccc23)CN(Cc2ccccc2)C[C@@H]1Cc1c[nH]c2ccccc12
Found: 4.1
